Source of measurements: patent US7601489B2

Measured Endpoint: Kd (mM)
Enter your answer as a number in mM; do not include the unit.

The molecule [Mg+2] [Mg^2+, MgCl2] on wild-type Ty1 RT (Saccharomyces cerevisiae, UniProt P47098): Kd was 0.13

Measured Kd (wild-type Ty1 RT (Saccharomyces cerevisiae, UniProt P47098)), entry [Mn+2] [Mn^2+, MnCl2] : 19.9

* * *

Experimental System: D211N Ty1 RT (Saccharomyces cerevisiae, UniProt P47098, D1428N)
Sequence (P47098 1218-1755 D1428N): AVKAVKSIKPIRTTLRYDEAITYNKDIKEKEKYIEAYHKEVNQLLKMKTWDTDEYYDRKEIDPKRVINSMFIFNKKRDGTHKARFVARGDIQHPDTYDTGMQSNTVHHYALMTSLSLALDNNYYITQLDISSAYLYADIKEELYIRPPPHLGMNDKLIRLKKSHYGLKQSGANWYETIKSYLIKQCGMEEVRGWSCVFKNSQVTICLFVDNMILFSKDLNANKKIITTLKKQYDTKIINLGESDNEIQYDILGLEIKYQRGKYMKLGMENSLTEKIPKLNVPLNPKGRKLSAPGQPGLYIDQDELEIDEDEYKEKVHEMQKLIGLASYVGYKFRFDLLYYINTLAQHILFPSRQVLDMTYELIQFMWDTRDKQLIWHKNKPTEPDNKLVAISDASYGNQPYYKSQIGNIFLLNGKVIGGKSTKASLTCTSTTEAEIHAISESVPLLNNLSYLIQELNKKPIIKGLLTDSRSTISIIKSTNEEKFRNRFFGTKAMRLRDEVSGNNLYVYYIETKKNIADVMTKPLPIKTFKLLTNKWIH
Method: RT assay on purified RT, metal ion competition and metal activation kinetics
Measured Endpoint: Kd (mM)
Numeric only. Scale: mM

Noted Kd for "[Mn+2]" , tested on D211N Ty1 RT (Saccharomyces cerevisiae, UniProt P47098, D1428N): 0.02

Test item "[Mg+2]" ; D211N Ty1 RT (Saccharomyces cerevisiae, UniProt P47098, D1428N); reported Kd was 6.3
